# System: α-isomaltosylglucosaccharide-forming enzyme
# Experiment: Influence of metal ions on α-isomaltosylglucosaccharide-forming enzyme activity (N75 strain)
# Assay type: biochemical, Bacillus globisporus N75 strain
# Settings: 1 mM; Table 13
Measure: effect on the enzyme activity, in words

[
  {
    "Structure as smiles": "[Mn+2]",
    "Measure": "effect on the enzyme activity, in words",
    "Result": "activated"
  },
  {
    "Structure as smiles": "[Ca+2]",
    "Measure": "effect on the enzyme activity, in words",
    "Result": "activated"
  },
  {
    "Structure as smiles": "O=C(O)CN(CCN(CC(=O)O)CC(=O)O)CC(=O)O",
    "Measure": "effect on the enzyme activity, in words",
    "Result": "strongly inhibited"
  },
  {
    "Structure as smiles": "[Hg+2]",
    "Measure": "effect on the enzyme activity, in words",
    "Result": "strongly inhibited"
  }
]

Query: What value of effect on the enzyme activity, in words has been reported for the following molecule? [Cu+2]
Reply: strongly inhibited

---

# Test system: α-isomaltosylglucosaccharide-forming enzyme
# Experiment: Transfer-acceptor specificity, enzyme of N75 strain
# Assay type: biochemical, Bacillus globisporus N75 strain
# Design: key: −: no saccharide-transferred product was detected through transfer reaction to acceptor; ±: a saccharide-transferred product was detected in an amount less than one percent through transfer reaction to acceptor; +: a saccharide-transferred product was detected in an amount over one percent but less than 10% through transfer reaction to acceptor; ++: a saccharide-transferred product was detected in an amount over ten percent through transfer reaction to acceptor
# Settings: acceptor 1.6%, PINE-DEX #100 donor 4%, one unit/g donor, 30° C., pH 6.0, 24 hours
Measure: Product of transferring reaction, Enzyme of N75 strain

[
  {
    "Structure as smiles": "C[C@H](O)[C@H](O)[C@@H](O)[C@@H](O)C=O",
    "System tested": "α-isomaltosylglucosaccharide-forming enzyme",
    "Result": "−"
  },
  {
    "Structure as smiles": "OC[C@H]1O[C@@H]2O[C@H]3[C@H](O)[C@@H](O)[C@@H](O[C@H]4[C@H](O)[C@@H](O)[C@@H](O[C@H]5[C@H](O)[C@@H](O)[C@@H](O[C@H]6[C@H](O)[C@@H](O)[C@@H](O[C@H]7[C@H](O)[C@@H](O)[C@@H](O[C@H]8[C@H](O)[C@@H](O)[C@@H](O[C@H]1[C@H](O)[C@H]2O)O[C@@H]8CO)O[C@@H]7CO)O[C@@H]6CO)O[C@@H]5CO)O[C@@H]4CO)O[C@@H]3CO",
    "System tested": "α-isomaltosylglucosaccharide-forming enzyme",
    "Result": "−"
  }
]

---

# System: α-isomaltosylglucosaccharide-forming enzyme
# Experiment: Action on saccharides as substrates (TLC), enzyme of C11 strain
# Assay type: biochemical, Bacillus globisporus C11 strain
# Parameters: key: −: it showed no change; +: it showed a slight reduction of the color spot of the substrate and the formation of other reaction product; ++: it showed a high reduction of the color spot of the substrate and the formation of other reaction product; +++: it showed a substantial disappearance of the substrate spot and the formation of other reaction product
# Settings: two units/g substrate, substrate 2% (w/v), 30° C., pH 6.0, 24 hours

[
  {
    "Compound": "OC[C@@H](O)[C@@H](O[C@H]1O[C@H](CO)[C@@H](O[C@H]2O[C@H](CO)[C@@H](O)[C@H](O)[C@H]2O)[C@H](O)[C@H]1O)[C@H](O)[C@@H](O)CO",
    "Enzymatic action, Enzyme of C11 strain": "+"
  },
  {
    "Compound": "OC[C@H]1O[C@H](O[C@H]2[C@H](O)[C@@H](O)[C@@H](OC[C@H]3OC(O)[C@H](O)[C@@H](O)[C@@H]3O)O[C@@H]2CO)[C@H](O)[C@@H](O)[C@@H]1O (stereo partly shown)",
    "Enzymatic action, Enzyme of C11 strain": "++"
  },
  {
    "Compound": "OC[C@H]1O[C@H](OC[C@H]2OC(O)[C@H](O)[C@@H](O)[C@@H]2O)[C@H](O)[C@@H](O)[C@@H]1O (stereo partly shown)",
    "Enzymatic action, Enzyme of C11 strain": "−"
  },
  {
    "Compound": "OC[C@H]1O[C@@H](O[C@H]2O[C@H](CO)[C@@H](O)[C@H](O)[C@H]2O)[C@H](O)[C@@H](O)[C@@H]1O",
    "Enzymatic action, Enzyme of C11 strain": "+"
  }
]

---

# System: α-isomaltosylglucosaccharide-forming enzyme
# Experiment: Transfer-acceptor specificity, enzyme of C11 strain
# Type: biochemical, Bacillus globisporus C11 strain
# Set-up: key: −: no saccharide-transferred product was detected through transfer reaction to acceptor; ±: a saccharide-transferred product was detected in an amount less than one percent through transfer reaction to acceptor; +: a saccharide-transferred product was detected in an amount over one percent but less than 10% through transfer reaction to acceptor; ++: a saccharide-transferred product was detected in an amount over ten percent through transfer reaction to acceptor
# Settings: acceptor 1.6%, PINE-DEX #100 donor 4%, one unit/g donor, 30° C., pH 6.0, 24 hours
Measure: Product of transferring reaction, Enzyme of C11 strain

[
  {
    "Structure as smiles": "OC[C@@H](O)[C@@H](O)[C@H](O)[C@@H](O)CO",
    "Result": "−"
  }
]

---

# System: α-isomaltosylglucosaccharide-forming enzyme
# Experiment: Action on saccharides as substrates (TLC), enzyme of C11 strain
# Format: biochemical, Bacillus globisporus C11 strain
# Design: key: −: it showed no change; +: it showed a slight reduction of the color spot of the substrate and the formation of other reaction product; ++: it showed a high reduction of the color spot of the substrate and the formation of other reaction product; +++: it showed a substantial disappearance of the substrate spot and the formation of other reaction product
# Settings: two units/g substrate, substrate 2% (w/v), 30° C., pH 6.0, 24 hours
Measure: Enzymatic action, Enzyme of C11 strain

Consider the worked cases shown below.
[
  {
    "Molecule": "OC[C@H]1O[C@H](O[C@H]2[C@H](O)[C@@H](CO)OC(O)[C@@H]2O)[C@H](O)[C@@H](O)[C@@H]1O (some centres unmarked) [Nigerose, nigerose]",
    "Enzymatic action, Enzyme of C11 strain": "+"
  },
  {
    "Molecule": "OC[C@H]1O[C@H](OC[C@H]2O[C@H](O[C@H]3[C@H](O)[C@@H](O)C(O)O[C@@H]3CO)[C@H](O)[C@@H](O)[C@@H]2O)[C@H](O)[C@@H](O)[C@@H]1O (some centres unmarked) [Panose, panose]",
    "Enzymatic action, Enzyme of C11 strain": "−"
  },
  {
    "Molecule": "OC[C@H]1O[C@H](OC[C@H]2O[C@H](OC[C@H]3OC(O)[C@H](O)[C@@H](O)[C@@H]3O)[C@H](O)[C@@H](O)[C@@H]2O)[C@H](O)[C@@H](O)[C@@H]1O (some centres unmarked) [Isomaltotriose, isomaltotriose]",
    "Enzymatic action, Enzyme of C11 strain": "−"
  },
  {
    "Molecule": "OC[C@H]1O[C@@](CO)(O[C@H]2O[C@H](CO)[C@@H](O)[C@H](O)[C@H]2O)[C@@H](O)[C@@H]1O [Sucrose, sucrose]",
    "Enzymatic action, Enzyme of C11 strain": "−"
  }
]

Now, please, on to the next molecule.
Query: I would be grateful if you could share the reported Enzymatic action, Enzyme of C11 strain for OC[C@H]1O[C@@H](OC[C@H]2OC(O)[C@H](O)[C@@H](O)[C@@H]2O)[C@H](O)[C@@H](O)[C@@H]1O (some centres unmarked) [Gentibiose, gentibiose] .
Reply: −

---

# Test system: α-isomaltosylglucosaccharide-forming enzyme
# Experiment: Influence of metal ions on α-isomaltosylglucosaccharide-forming enzyme activity (A19 strain)
# Assay type: biochemical, Arthrobacter globiformis A19 strain
# Settings: in the presence of 1 mM of each metal-ion; None = 100
Measure: Relative activity (%)
Could you give me the number in %? Just the number is fine.

Some entries whose results are on file:
[
  {
    "Structure as smiles": "[Fe+2]",
    "Relative activity (%)": 36
  },
  {
    "Structure as smiles": "[Al+3]",
    "Relative activity (%)": 37
  },
  {
    "Structure as smiles": "[Sr+2]",
    "Relative activity (%)": 102
  }
]

Query: Relative activity (%) lookup needed for [Zn+2] , thanks.
Reply: 56

Query: One more compound: [Cu+2]
Reply: 0

Query: Now consider [Hg+2] .
Reply: 0

Query: And O=C(O)CN(CCN(CC(=O)O)CC(=O)O)CC(=O)O ?
Reply: 2

Query: Subsequent entry: [Ca+2]
Reply: 106

Query: Also need [Pb+2] , thanks.
Reply: 43

Query: Then this compound: [Co+2]
Reply: 93

Query: Thanks! And [Ba+2] ?
Reply: 99

Query: Next record, please: [Ni+2]
Reply: 46
